Listing of recorded T/C by entry.
tested on: DBA/2 mice, P1534 leukemia ip, survival T/C; assay: NCI In Vivo Anticancer Drug Screen. Data for tumor model P1534 Leukemia (intraperitoneal) in DBA/2 mice; conditions: endpoint: mean survival time; dose: 4.0 mg/kg/injection; schedule: Q01DX010 (ip); vehicle: saline; higher = longer survival
Toxic doses and inconclusive results are not listed.

Query :: Look up T/C: COC(=O)c1[nH]c(=O)[nH]c(=O)c1F
Result :: 93 % of control

Query :: Now give it for N=[N+]=CC(=O)OCC(N)C(=O)O (centres undefined) too.
Result :: 117 % of control

Query :: And for CSc1ncnc2c1ncn2C1OC(CO)C(O)C1O (centres undefined) ?
Result :: 100 % of control

Next, consider the following compound.
Query :: Requested field: T/C. Item: CCNNC(=O)[C@@H]1[C@H](c2cc(OC)c(OC)c(OC)c2)c2cc3c(cc2[C@H](O)[C@H]1CO)OCO3
Result :: 100 % of control

###

tested on: DBA/2 mice, P1534 leukemia ip, survival T/C; experiment: NCI In Vivo Anticancer Drug Screen. Data for tumor model P1534 Leukemia (intraperitoneal) in DBA/2 mice; settings: endpoint: mean survival time; dose: 100.0 mg/kg/injection; schedule: Q01DX010 (ip); vehicle: saline; higher = longer survival
Toxic doses and inconclusive results are not listed.
measured parameter: T/C

Solved cases (2 shown):
Query :: Item COC1C(OC(N)=O)C(O)C(Oc2ccc3c(O)c(NC(=O)c4ccc(O)c(CC=C(C)C)c4)c(=O)oc3c2C)OC1(C)C (stereo unspecified) has what recorded T/C?
Result :: 96 % of control

Query :: Try this compound too: N=C(N)N
Result :: 100 % of control

Next:
Query :: # input compound: [N-]=[N+]=CC(=O)NCC(=O)NN ; wanted: its T/C
Result :: 100 % of control

###

Measured T/C, listed per entry for reference.
system: DBA/2 mice, P1534 leukemia ip, survival T/C; assay: NCI In Vivo Anticancer Drug Screen. Data for tumor model P1534 Leukemia (intraperitoneal) in DBA/2 mice; details: endpoint: mean survival time; dose: 40.0 mg/kg/injection; schedule: Q01DX010 (ip); vehicle: saline; higher = longer survival
Toxic doses and inconclusive results are not listed.

Query :: Fill in: T/C of CN(C)c1ccc(/C=C/c2ccnc3ccccc23)cc1 is ___
Result :: 100 % of control

Query :: Then this compound: CN(N=O)C(=O)NC(C=O)C(O)C(O)C(O)CO (centres undefined)
Result :: 122 % of control

Query :: Entry CCN(CC)CCNc1ccc(C)c2sc3ccccc3c(=O)c12 please
Result :: 112 % of control

Continuing:
Query :: Look at this compound and give its reported T/C. Cn1c(N)nc2nc[nH]c2c1=S
Result :: 100 % of control

###

tested on: DBA/2 mice, P1534 leukemia ip, survival T/C; assay: NCI In Vivo Anticancer Drug Screen. Data for tumor model P1534 Leukemia (intraperitoneal) in DBA/2 mice; conditions: endpoint: mean survival time; dose: 2.0 mg/kg/injection; schedule: Q01DX010 (ip); vehicle: saline
Toxic doses and inconclusive results are not listed. The calls were made as follows: active = survival T/C of 150% or more; inactive = T/C below 125% in these data.
Form entry, call: pick from yes (1) for active, no (0) for inactive

Query :: Hi, sorry to bother you, what did the test record for NC(=O)N(CCCl)N=O ?
Result :: no (0)

Query :: Now give it for N[C@@H](Cc1ccc(N(CCCl)CCCl)cc1)C(=O)O too.
Result :: yes (1)

Query :: Now consider CO[C@@]12[C@H](COC(N)=O)C3=C(C(=O)C(C)=C(N)C3=O)N1C[C@@H]1N[C@@H]12 and answer again.
Result :: no (0)

Query :: Queued: Nc1nc(=S)c2ncn(C3OC(CO)C(O)C3O)c2[nH]1 (stereo not given)
Result :: no (0)

Then there is this compound:
Query :: Identify the outcome logged in this assay for the compound shown: CCNNC(=O)[C@@H]1[C@H](c2cc(OC)c(OC)c(OC)c2)c2cc3c(cc2[C@H](O)[C@H]1CO)OCO3
Result :: no (0)

###

tested on: DBA/2 mice, P1534 leukemia ip, survival T/C; experiment: NCI In Vivo Anticancer Drug Screen. Data for tumor model P1534 Leukemia (intraperitoneal) in DBA/2 mice; conditions: endpoint: mean survival time; dose: 3.13 mg/kg/injection; schedule: Q01DX010 (ip); vehicle: saline; higher = longer survival
Toxic doses and inconclusive results are not listed.
measured parameter: T/C

In the examples that follow, each entry is paired with its recorded T/C.
Query :: Identify the measured T/C of CCc1c(CC(=O)O)c2cc(C)ccc2n1Cc1ccc(Cl)cc1 for DBA/2 mice, P1534 leukemia ip, survival T/C.
Result :: 103 % of control

Query :: Consider next the molecule C[C@@H](N)[C@@H](O)c1ccccc1 in the same way.
Result :: 96 % of control

Query :: What would you report for C/C=C1\CN(C=O)C2CC3c4ccccc4NC3C(=O)CC1C2C(=O)OC (centres undefined) ?
Result :: 100 % of control

In the following, a different molecule is considered.
Query :: What measured T/C is associated with CS(=O)(=O)OCCC(=O)N1CCN(C(=O)CCOS(C)(=O)=O)CC1 on DBA/2 mice, P1534 leukemia ip, survival T/C?
Result :: 107 % of control

###

Measured T/C by item
tested on: DBA/2 mice, P1534 leukemia ip, survival T/C; test: NCI In Vivo Anticancer Drug Screen. Data for tumor model P1534 Leukemia (intraperitoneal) in DBA/2 mice; details: endpoint: mean survival time; dose: 0.5 mg/kg/injection; schedule: Q01DX010 (ip); vehicle: saline; higher = longer survival
Inconclusive results and toxic doses are left out.

# count of solved cases: 4
Query :: Looking for the measured T/C of C[C@]12CC[C@H](OC3OC(CO)C(O)C(O)C3O)C[C@H]1CC[C@@H]1[C@@H]2CC[C@]2(C)[C@@H](C3=CCOC3=O)CC[C@]12O (stereo partly specified) , can you help?
Result :: 100 % of control

Query :: Quick one: N=[N+]=CC(=O)OCC(N)C(=O)O (stereo unspecified)
Result :: 94 % of control

Query :: Check CO[C@@]12[C@H](COC(N)=O)C3=C(C(=O)C(C)=C(N)C3=O)N1C[C@@H]1N[C@@H]12 too.
Result :: 111 % of control

Query :: Another: NC(=O)N(CCCl)N=O
Result :: 100 % of control

Continuing:
Query :: Value lookup for T/C; key = CCC(=O)NC1=C(N2CC2)C(=O)C(NC(=O)CC)=C(N2CC2)C1=O
Result :: 100 % of control

Query :: Same lookup for CN1CCCC1c1cccnc1 (stereo unspecified) , please.
Result :: 100 % of control

###

Below is a list of entries, each paired with its recorded T/C value.
system: DBA/2 mice, P1534 leukemia ip, survival T/C; assay: NCI In Vivo Anticancer Drug Screen. Data for tumor model P1534 Leukemia (intraperitoneal) in DBA/2 mice; conditions: endpoint: mean survival time; dose: 2.5 mg/kg/injection; schedule: Q01DX010 (ip); vehicle: saline; higher = longer survival
Toxic doses and inconclusive results are not listed.

Query :: State the recorded T/C for this entry: COC(=O)C1C(O)CCC2CN3CCc4c([nH]c5ccccc45)C3CC21 (stereo not given)
Result :: 103 % of control

Query :: Also, COc1ccc2[nH]c3c(C)c4ccncc4c(C)c3c2c1 please.
Result :: 100 % of control

Query :: Same for NC(Cc1ccc(N(CCCl)CCCl)cc1)C(=O)O (stereo not given)
Result :: 100 % of control

Query :: Next record, please: COc1cc2c3c(c4ccc(OC)c(OC)c4c2cc1OC)CN1CCC[C@@H]1C3
Result :: 88 % of control

Continuing:
Query :: Name the recorded T/C for Oc1cc(CN(CCCl)CCCl)c(O)cc1CN(CCCl)CCCl .
Result :: 117 % of control

###

tested on: DBA/2 mice, P1534 leukemia ip, survival T/C; test: NCI In Vivo Anticancer Drug Screen. Data for tumor model P1534 Leukemia (intraperitoneal) in DBA/2 mice; details: endpoint: mean survival time; dose: 100.0 mg/kg/injection; schedule: Q01DX010 (ip); vehicle: saline; higher = longer survival
Toxic doses and inconclusive results are not listed.
Property: T/C; scope: individual molecules

Query :: What reported T/C corresponds to CSc1ncnc2nc[nH]c12 on DBA/2 mice, P1534 leukemia ip, survival T/C?
Result :: 100 % of control

Query :: Moving on to the next molecule: OC(CBr)C(O)C(O)C(O)CBr (stereo not drawn)
Result :: 100 % of control

Query :: Entry to check: CN(C)/N=N/c1nc[nH]c1C(N)=O
Result :: 86 % of control
